Molecular target: T1, 犬IL-31RA ECD-10His (犬 (canine))
T1 chain: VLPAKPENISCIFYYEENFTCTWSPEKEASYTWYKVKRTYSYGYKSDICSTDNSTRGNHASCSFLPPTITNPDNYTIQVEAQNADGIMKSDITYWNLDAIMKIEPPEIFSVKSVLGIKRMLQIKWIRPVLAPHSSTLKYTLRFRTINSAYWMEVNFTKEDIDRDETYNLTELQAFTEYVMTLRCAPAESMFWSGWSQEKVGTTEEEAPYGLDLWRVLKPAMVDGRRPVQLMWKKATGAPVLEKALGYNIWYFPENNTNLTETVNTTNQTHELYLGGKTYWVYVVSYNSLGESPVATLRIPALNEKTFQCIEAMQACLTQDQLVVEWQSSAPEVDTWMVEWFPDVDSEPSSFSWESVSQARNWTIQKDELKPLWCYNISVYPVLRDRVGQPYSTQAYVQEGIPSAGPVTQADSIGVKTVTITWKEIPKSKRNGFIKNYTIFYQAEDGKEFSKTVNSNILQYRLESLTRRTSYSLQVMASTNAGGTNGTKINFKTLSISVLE
Assay: Octet BLI, biotinylated canine IL-31RA on SA biosensor, mAb 100-3.13 nM, 1:1 model
reported.endpoint: kon
Entry format: amount then unit.

INSERT INTO measurements (binder, reported_endpoint, value_reported) VALUES
  ('218D9 (antibody, V domains shown) VH: QVTLKESGPGILQPSQTLSLTCSFSGFSLSTFGRGVGWIRQPSGKGLDWLTHIWWDDDKYYNPALKSRLTISKDTSKNQVFLKIANVDTADTATYYCARIAGGLRRAPYAMDSWGQGTSVTVSS VL: DVVMTQTPLSLPVSLGDQASISCRSSQSLVHTNGNTYLHWYLQKPGQSPKLLIYKVSNRFSGVPDRFSGSGSGTDFTLKISRVEAEDLGVYFCSQTTHVPLTFGAGTKLELK', 'kon', '664000 M⁻¹ s⁻¹');

Could you now consider this next binder?
Data point: 209G5 (antibody, V domains shown) VH: EVQLQQSVAELVRPGASVKLSCTASGFNIKNTYMHWVKERPEQGLEWIGRIDPANGNSKYAPKFQGKATITTDTSSNTAYLQLSSLTSEDTAIYYCARYYYVSSHFDVWGTGTTVTVSS VL: DIKMTQSPSSMYASLGERVTITCKASQDINSYLNWFQQKPGKSPKTLIYRADRLVDGVPSRFSGSGSGQDYSLTISSLEYEDMGIYYCLQYDEFPLTFGDGTKLELN ; kon = 370000 M⁻¹ s⁻¹
